measurement-notes: counter assay for TAg ATPase ADP read-out – biochemical, ADP-Hunter, fluorescence, counter-screen (AID 2501);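 further: purified T antigen ATPase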
details: series mostly up to 100 µM
Among all 2,200 compounds or so, about 1,200 (55%) were called active. Cut-off not given; nearly all actives show IC50 up to about 92 µM. The set was probably picked from earlier hits. The list shows a part of the results.
Select the correct class. Options are active, inactive and nothing else.

Examples from the recorded data:
1) COc1ccc(C(=O)N2CCN(C(=O)C3COc4ccccc4O3)CC2)cc1 (stereo unspecified)    inactive
2) Cc1ccc(/C=N/n2c(-c3ccco3)n[nH]c2=S)cc1    active
3) CCS(=O)(=O)c1nc(S(=O)(=O)c2ccc(Cl)cc2)c(NCc2ccccn2)s1    inactive
4) Oc1ccc2[nH]ccc2c1    active
5) Cc1cc(C(F)(F)F)nc2c(Cl)c(C(C)(C)C)nn12    inactive
6) CC(/C=N/n1c(-c2cccnc2)n[nH]c1=S)=C\c1ccccc1    active
7) Cc1ccc(-n2c(-c3cc(-c4ccco4)[nH]n3)n[nH]c2=S)c(Br)c1    inactive
8) O=C1OC2(c3ccccc31)c1cc(I)c(O)c(I)c1Oc1c2cc(I)c(O)c1I    inactive

Please indicate how the test categorized NC(=O)[C@@H]1CCCCNc2c(I)cc([N+](=O)[O-])cc2C(=O)N[C@@H](CCC(=O)O)C(=O)N[C@@H](CO)C(=O)N1 .
inactive

Please indicate how the test categorized O=Cc1sc(=O)n(Cc2cccc(C(=O)O)c2)c1Cl .
inactive

Please indicate how the test categorized C=CCn1c(-c2ccc3ncccc3c2)n[nH]c1=S .
inactive

----------
measurement-notes: counter assay for TAg ATPase ADP read-out – biochemical, ADP-Hunter, fluorescence, counter-screen (AID 2501);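 further: purified T antigen ATPase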
details: series mostly up to 100 µM
The whole screen tested about 2,200 compounds, of which about 1,200 (55%) were called active. No cut-off is given here; in the data, nearly all actives have IC50 up to about 92 µM. So high a share suggests a set chosen from earlier hits. This is one part of the list.
Select the correct class. Options are label 1 = active, label 0 = inactive and nothing else.

1) COc1cc([N+](=O)[O-])cc(/C=N/NC(=O)CC#N)c1O    label 0
2) COC(=O)/C=C1/N/C(=N\c2nc(C)cc(C)n2)N(c2ccc(Cl)cc2)C1=O    label 0
3) CN=c1scc(C)n1/N=C/c1cc(Br)c(O)c(OC)c1    label 1
4) CN1C=CC=C/C1=C(\C#N)c1nc2ccccc2[nH]1    label 1
5) O=C(CC1SC(=O)N(c2ccccc2)C1=O)Nc1cccc2ccccc12 (stereo unspecified)    label 0

Read the next record carefully.
Please indicate how the test categorized CCOc1ccc(N2Nc3n[nH]c(N)c3N2)cc1 .
label 1

----------
measurement-notes: counter assay for TAg ATPase ADP read-out – biochemical, ADP-Hunter, fluorescence, counter-screen (AID 2501);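 further: purified T antigen ATPase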
details: series mostly up to 100 µM
The campaign covered roughly 2,200 compounds. About 1,200 (55%) were called active. No cut-off is given here; in the data, nearly all actives have IC50 up to about 92 µM. So high a share suggests a set chosen from earlier hits. The list shows a part of the results.
Select the correct class. Options are active, inactive and nothing else.

1. NC(=O)N/N=C/c1c(Sc2nnnn2-c2ccccc2)nc2ccccn2c1=O    inactive

Please indicate how the test categorized O=[N+]([O-])c1c(Nc2cccc(O)c2)cc(Cl)c2nonc12 .
inactive

Please indicate how the test categorized CC(C)(C)OC(=O)N/N=C/c1ccc(N2CCOCC2)s1 .
active
